Assign %Inh to each entry below.
tested on: PCTK1; construct: gene CDK16; details: concentration: 1 μM, replicates: in singlicate; n = 1;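 further: KINOMEscan kinase panel screen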
Answers are plain numbers, in %.

Task: Supply measured %Inh of `O=C(NCCCN1CCCC1=O)c1cnc(NCc2cc(Cl)ccc2Cl)nc1NC1CCNCC1` in your reply.
Result: 0

Task: State, in one line, measured %Inh of `CC(=O)Nc1n[nH]c2ncc(-c3ccccc3)cc12`
Result: 3

Task: Identify measured %Inh corresponding to `CS(=O)(=O)CCNCc1nc(-c2ccc3ncnc(Nc4ccc(OCc5cccc(F)c5)c(Cl)c4)c3c2)cs1.Cl`
Result: 3

Task: Look up and report measured %Inh for this entry: `Cn1ccc2ncnc(Oc3ccc(NC(=O)Nc4cccnc4)c(Cl)c3)c21`
Result: 19

Task: Indicate its recorded %Inh; the molecule in question is `CC(C)(C)c1ccc(-n2cnc3c(N)ncnc32)cc1`
Result: 0

Please look at the items below and tell me %Inh for each one, in order.
1. CSc1nn2c(=O)cc(N3CCOCC3)nc2n1Cc1cccc(Cl)c1Cl
2. COc1ccc(-c2nc3n(c2-c2ccncc2)CCC3)cc1
3. COc1ccc(NC(=O)Nc2ccc(C)c(-c3ccc(C(=O)Nc4ccncc4)cc3)c2)cc1
4. c1ccc(-c2ccc3c(-c4ccnc(Nc5ccc6c(c5)OCCO6)n4)cnn3n2)cc1
5. Nc1nc(-c2cccnc2)c(-c2ccnc3ccccc23)s1
6. COc1ccc(Nc2nccc(N3CCC(NC(=O)c4cccc(NC(C)=O)c4)C3)n2)cc1 (stereo not shown)

Result:
15
0
0
0
0
0

* * *

tested on: AMPK-alpha1; construct: gene PRKAA1; settings: concentration: 1 μM, replicates: in singlicate; n = 1
Threshold rule: %Inh greater than or equal to 20% is rule met; below that, rule not met.

Please review the following examples before continuing.
Task: Exam item: decide whether the reported %Inh for `Fc1ccc(-c2ncn(CCCNCc3ccccc3)c2-c2ccncc2)cc1` is at least 20%.
Result: rule met

Task: Reported %Inh at or above 20%? Fc1cccc(COc2ccc(Nc3ncnc4sc(-c5ccc[nH]5)cc34)cc2Cl)c1 [GW707818]
Result: rule not met

Task: Is the recorded value of %Inh equal to or greater than 20% for this compound? Fc1cccc(COc2ccc(Nc3ncnc4nn5ccccc5c34)cc2Cl)c1 [GW689066]
Result: rule not met

---
Task: Entry `O=C(Nc1ccccc1)Nc1ccc(Oc2ccc3nccn3n2)cc1` : is its %Inh no less than 20%?
Result: rule met

Task: Confirm if %Inh reported for the compound Cl.c1ccc(Cn2ccc3cc(Nc4ncnc5ccccc45)ccc32)cc1 [GW275568] is 20% or above.
Result: rule not met

Task: Determine whether measured %Inh meets or exceeds 20% for `N#Cc1ccc(Oc2ccc(Nc3ncnc4cc[nH]c34)cc2Cl)cc1`
Result: rule not met

Task: Given the entry CC(C)N1CCC(n2cnc(-c3ccc(F)cc3)c2-c2ccnc(N)n2)CC1 [SB-223132] , answer whether its %Inh meets or surpasses 20%.
Result: rule not met

Task: Please check the record `Cn1ccc2ncnc(Oc3ccc(NC(=O)Nc4cccnc4)c(Cl)c3)c21` and state if its %Inh is at or above 20%.
Result: rule not met

* * *

test system: SIK; conditions: concentration: 1 μM, replicates: in singlicate; n = 1
So I've got a bunch of compounds here, and I need their %Inh values.
Answers are plain numbers, in %.

Consider the reported %Inh for these compounds:
Task: // Input: Cl.c1ccc(Cn2ncc3cc(Nc4ncnc5ccccc45)ccc32)cc1 [GW273749] . Output its %Inh only.
Result: 0

Task: Name the recorded %Inh of the compound listed here: CN1CCC(n2cnc(-c3ccc(F)cc3)c2-c2ccnc(NC3CCNCC3)n2)CC1 [SB-229482]
Result: 12

Task: Read the entry COC(=O)c1cccc(NC(=O)NCCNc2ccnc(Nc3ccc(F)cc3)n2)c1 [GSK1379883] and write its reported %Inh.
Result: 0

Task: Supply recorded %Inh for Nc1nc(-c2ccc3c(N)n[nH]c3c2)cc(N2CCC[C@@H](C(=O)Nc3ccccc3)C2)n1.O=C(O)C(F)(F)F.O=C(O)C(F)(F)F [GSK2288359] here.
Result: 0

Task: Tell us which %Inh value is on record for CCC(CC)(CC)n1cnc2c(N)ncnc21 [SKF-97620]
Result: 0

Can you give me %Inh for all of these, one by one?
1. CC(C)(C)c1ccc(-n2cnc3c(N)ncnc32)cc1 [SKF-97263]
2. Cn1ccc2ncnc(Nc3ccc(Oc4cccc(Cl)c4)c(Cl)c3)c21

Result:
1: 0; 2: 37
